Source: patent US8030300B2

Each entry below lists one item and its recorded Ki value.
# Study system: α4β4 nAChR subtype (Rattus norvegicus, UniProt P09483+P12392)
# Construct: expressed in transfected cells
# Sequence (P12392 21-495): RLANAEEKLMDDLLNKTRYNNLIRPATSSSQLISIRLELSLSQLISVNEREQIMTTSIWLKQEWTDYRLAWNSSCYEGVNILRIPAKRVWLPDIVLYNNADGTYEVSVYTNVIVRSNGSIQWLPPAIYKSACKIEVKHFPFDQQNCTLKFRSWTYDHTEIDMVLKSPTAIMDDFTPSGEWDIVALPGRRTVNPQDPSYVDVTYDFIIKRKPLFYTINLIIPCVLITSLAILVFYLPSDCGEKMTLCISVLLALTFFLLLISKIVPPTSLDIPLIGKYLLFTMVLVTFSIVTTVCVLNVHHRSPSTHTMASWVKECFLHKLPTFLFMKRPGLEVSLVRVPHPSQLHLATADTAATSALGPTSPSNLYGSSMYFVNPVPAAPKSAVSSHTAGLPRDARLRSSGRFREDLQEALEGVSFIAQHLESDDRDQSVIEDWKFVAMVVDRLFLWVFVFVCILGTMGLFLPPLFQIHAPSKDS
# Sequence (P09483 31-630): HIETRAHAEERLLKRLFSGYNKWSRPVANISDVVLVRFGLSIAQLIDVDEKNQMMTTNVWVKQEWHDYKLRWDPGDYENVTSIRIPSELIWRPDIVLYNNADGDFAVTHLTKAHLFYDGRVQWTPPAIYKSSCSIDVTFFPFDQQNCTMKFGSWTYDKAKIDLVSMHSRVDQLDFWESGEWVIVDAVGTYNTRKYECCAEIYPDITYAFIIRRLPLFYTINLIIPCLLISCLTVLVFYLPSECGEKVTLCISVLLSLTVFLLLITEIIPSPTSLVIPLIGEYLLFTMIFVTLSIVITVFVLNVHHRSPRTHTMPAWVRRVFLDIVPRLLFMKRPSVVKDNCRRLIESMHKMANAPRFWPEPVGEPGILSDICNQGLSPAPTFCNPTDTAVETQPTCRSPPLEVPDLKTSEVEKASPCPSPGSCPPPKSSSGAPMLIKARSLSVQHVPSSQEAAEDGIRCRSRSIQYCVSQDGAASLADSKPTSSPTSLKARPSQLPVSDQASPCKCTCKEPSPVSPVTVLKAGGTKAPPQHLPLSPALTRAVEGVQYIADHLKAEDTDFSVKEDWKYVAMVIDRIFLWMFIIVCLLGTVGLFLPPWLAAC
# Test method notes: biochemical
# Format: binding
# Settings: Ki α4β4, Table 5; rat nAChR subtypes
Please respond with the number in µM and leave the unit unwritten.

| Compound | Ki / µM |
| --- | --- |
| Clc1cc2c(cn1)C1C3CCC(N3)C1CC2 (stereo not drawn) [Ligand 37a] | 0.672 |
| FCCCCC#Cc1cncc(OC[C@@H]2CCN2)c1 | 0.118 |

Kindly review the next compound as well.
According to the records, this compound OC1C2CCC(N2)C1c1ccc(Cl)nc1 (single isomer, unassigned) [Ligand 3] displays Ki of 0.0112
